experiment: binders of probe aHhip on microarray, primary screen, stem cell growth factor project, biochemical, small-molecule microarray, fluorescence 635/667 (AID 1087); conditions: higher = more signal;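 also: score merges spot fluorescence at 667nm with spot signal to noise ratio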
propertyName: composite z-score
Please respond with just the number, no unit label.

Past entries and their recorded results:
compound=O=c1cccc(-c2ccccc2Cl)o1 resultvalue=-0.0047
compound=C=C(CCCC)/C(=C/C[C@H](OC(C)=O)c1ccc(OCCO)cc1)c1cnc2ccccc2c1 resultvalue=-0.0672
compound=CCOC(=O)[C@H]1C/C=C/C[C@H](C(=O)OCC)C(=O)O[C@H]2[C@@H](OC)O[C@H](CO)[C@@H](OC(=O)c3ccc(Br)cc3)[C@@H]2OC1=O resultvalue=0.0566

Problem: Fill in composite z-score for record O=C1OCCC/C=C\[C@H]2OC34C=CCN(c5ccc6ccccc6c5)C(=O)[C@H]3N(CCCCCO)C(=O)[C@@H]4C12 (some centres undefined)
Result: -0.169

Problem: Hello, please tell me recorded composite z-score for this one: `C=CC[C@@]1(C(=O)N2CCCCC2)N=C(c2ccc(OCCCO)cc2)O[C@@H]1c1ccccc1CN=[N+]=[N-]`
Result: -0.219

Problem: Read off the recorded composite z-score for `C#CCN1[C@@H](Cc2ccc(O)cc2)C(=O)O[C@H](Cc2ccccc2)[C@@H]1/C=C/C1CC1`
Result: -0.279
